Reported Residual activity [%] by item:
- measured-target: T1, VLP2 (virus-like particles of AAV2) (AAV2, UniProt P03135 1-735; P03135 1-598; P03135 1-533)
- T1 construct: Empty AAV2 capsid; background says about 60 protein molecules, VP1:VP2:VP3 = 1:1:10; Immobilised on the ELISA plate
- T1 sequence (P03135 whole entry, chain 1 of 3): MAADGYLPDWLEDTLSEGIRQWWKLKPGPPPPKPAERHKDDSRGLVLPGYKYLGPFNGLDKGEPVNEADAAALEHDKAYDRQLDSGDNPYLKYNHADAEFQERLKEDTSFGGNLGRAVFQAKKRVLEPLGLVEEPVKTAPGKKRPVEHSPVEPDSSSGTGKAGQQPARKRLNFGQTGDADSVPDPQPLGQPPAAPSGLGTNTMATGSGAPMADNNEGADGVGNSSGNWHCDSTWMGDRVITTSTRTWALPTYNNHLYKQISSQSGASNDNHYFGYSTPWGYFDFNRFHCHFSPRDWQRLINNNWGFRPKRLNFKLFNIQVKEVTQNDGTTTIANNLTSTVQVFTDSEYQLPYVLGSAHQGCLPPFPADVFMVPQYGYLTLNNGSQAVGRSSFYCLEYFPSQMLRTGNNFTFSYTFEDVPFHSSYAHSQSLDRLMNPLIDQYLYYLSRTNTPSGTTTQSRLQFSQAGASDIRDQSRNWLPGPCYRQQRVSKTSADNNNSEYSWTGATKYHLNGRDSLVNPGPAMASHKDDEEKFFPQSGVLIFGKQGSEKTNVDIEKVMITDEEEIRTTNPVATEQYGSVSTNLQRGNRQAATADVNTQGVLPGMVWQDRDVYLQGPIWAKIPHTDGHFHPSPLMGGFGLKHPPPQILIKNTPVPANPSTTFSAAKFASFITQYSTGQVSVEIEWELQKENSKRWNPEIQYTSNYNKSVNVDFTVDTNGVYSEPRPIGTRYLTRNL
- T1 sequence (P03135 139-735, tags left off, chain 2 of 3): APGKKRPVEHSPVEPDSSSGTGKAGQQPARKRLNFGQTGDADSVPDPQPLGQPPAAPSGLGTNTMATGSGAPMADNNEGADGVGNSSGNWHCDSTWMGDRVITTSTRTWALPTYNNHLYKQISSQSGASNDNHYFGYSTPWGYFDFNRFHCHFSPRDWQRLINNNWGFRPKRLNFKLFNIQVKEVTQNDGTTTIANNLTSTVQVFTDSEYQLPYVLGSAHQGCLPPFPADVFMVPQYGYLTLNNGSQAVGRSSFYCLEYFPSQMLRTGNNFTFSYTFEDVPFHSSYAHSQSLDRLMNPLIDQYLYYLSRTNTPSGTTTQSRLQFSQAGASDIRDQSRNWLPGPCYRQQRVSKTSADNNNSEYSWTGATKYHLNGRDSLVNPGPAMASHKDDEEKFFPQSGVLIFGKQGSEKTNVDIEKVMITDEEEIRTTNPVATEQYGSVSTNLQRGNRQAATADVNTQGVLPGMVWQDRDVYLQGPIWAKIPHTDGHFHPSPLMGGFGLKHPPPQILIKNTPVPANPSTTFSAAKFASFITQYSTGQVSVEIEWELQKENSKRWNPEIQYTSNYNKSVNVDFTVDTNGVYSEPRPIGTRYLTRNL
- T1 sequence (P03135 203-735, chain 3 of 3): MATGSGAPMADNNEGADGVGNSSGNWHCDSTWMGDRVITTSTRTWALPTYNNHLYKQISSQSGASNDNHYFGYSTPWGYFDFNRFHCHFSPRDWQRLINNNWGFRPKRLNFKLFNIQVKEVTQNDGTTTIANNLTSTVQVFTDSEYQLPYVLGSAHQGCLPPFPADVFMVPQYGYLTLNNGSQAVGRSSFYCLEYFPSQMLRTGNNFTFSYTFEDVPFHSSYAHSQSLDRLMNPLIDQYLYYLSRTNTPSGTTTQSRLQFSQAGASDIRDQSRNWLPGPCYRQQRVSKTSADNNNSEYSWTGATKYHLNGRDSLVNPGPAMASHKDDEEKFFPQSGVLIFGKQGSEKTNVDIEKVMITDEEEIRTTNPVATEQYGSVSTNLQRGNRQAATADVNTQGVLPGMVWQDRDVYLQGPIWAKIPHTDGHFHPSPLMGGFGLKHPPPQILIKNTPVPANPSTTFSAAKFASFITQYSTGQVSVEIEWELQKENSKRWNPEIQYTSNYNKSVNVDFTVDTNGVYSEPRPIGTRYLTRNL
- assay-name: ELISA on VLP2; binding after 43°C 15 min / untreated
readout: Residual activity [%] (%)

binder	value
AAV-binding protein No. 21 (Tyr442Phe) (receptor) MGSAGESVQITLPKNEVQLNAYVLQEPPKGETYTYDWQLITHPRDYSGEMEGKHSQILKLSKLTPGLYEFKVIVEGQNAHGEGYVNVTVKPEPRKNRPPIAIVSPQFQEISLPTTSTVIDGSQSTDDDKIVQFHWEELKGPLREEKISEDTAILKLSKLVPGNYTFSLTVVDSDGATNSTTANLTVNKAVDHHHHHH	48.7
AAV-binding protein No. 36 (Tyr355His, Asn387Ser) (receptor) MGSAGESVQITLPKNEVQLNAYVLQEPPKGETYTYDWQLITHPRDHSGEMEGKHSQILKLSKLTPGLYEFKVIVEGQSAHGEGYVNVTVKPEPRKNRPPIAIVSPQFQEISLPTTSTVIDGSQSTDDDKIVQYHWEELKGPLREEKISEDTAILKLSKLVPGNYTFSLTVVDSDGATNSTTANLTVNKAVDHHHHHH	86.6
AAV-binding protein No. 28 (Tyr331Cys, Glu384Gly) (receptor) MGSAGESVQITLPKNEVQLNACVLQEPPKGETYTYDWQLITHPRDYSGEMEGKHSQILKLSKLTPGLYEFKVIVGGQNAHGEGYVNVTVKPEPRKNRPPIAIVSPQFQEISLPTTSTVIDGSQSTDDDKIVQYHWEELKGPLREEKISEDTAILKLSKLVPGNYTFSLTVVDSDGATNSTTANLTVNKAVDHHHHHH	83.7
